- system_name: T1, human CD200R1 expressed on cells (Jurkat-CD200R1, U937-CD200R1, HH cells) (human, UniProt Q8TD46 25-348)
- T1 construct: whole, on cells; also called HH (CRL-2105); cell surface-expressed CD200R1
- T1 sequence (looked up): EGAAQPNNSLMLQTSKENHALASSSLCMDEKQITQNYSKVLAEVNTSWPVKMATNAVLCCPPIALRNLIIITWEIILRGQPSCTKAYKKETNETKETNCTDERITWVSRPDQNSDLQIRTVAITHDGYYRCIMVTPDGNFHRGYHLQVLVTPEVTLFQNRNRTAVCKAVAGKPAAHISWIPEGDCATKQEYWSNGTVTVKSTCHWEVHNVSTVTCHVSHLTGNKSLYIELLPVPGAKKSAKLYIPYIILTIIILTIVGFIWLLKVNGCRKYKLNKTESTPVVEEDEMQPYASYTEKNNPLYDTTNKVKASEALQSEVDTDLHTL
- test_method_notes: flow cytometry, HH cells; drawn table
property_label: Geo mean (%) at 0.05 nM

Problem: Given the entry P001018 scFv mutant H3-Y102K (scFv) scFv: QVQLVQSGAEVKKPGASVKVSCKASGYTFTSYVMHWVRQAPGQGLEWMGYINPYNDDTNYNEKFKGRVTMTRDTSTSTVYMELSSLRSEDTAVYYCAREDYYGSRWGKWGQGTLVTVSSGGGGSGGGGSGGGGSDIVLTQSPASLAVSPGQRATITCRASKSVSTSGYSYMHWYQQKPGQPPKLLIYLASNLESGVPARFSGSGSGTDFTLTINPVEANDTANYYCQHSRELLTFGQGTKVEIK , report its measured Geo mean (%) at 0.05 nM.
Solution: 2.1%
